# System: Mus musculus
# PROCEDURE DETAILS: Antagonistic activity against potassium cyanide induced cytotoxic hypoxia in male CF-1 mice at a dose of 20 mg/kg(p<0.05)
# Assay type: organism-based
# Design: dose 20 mg/kg
# CONDITION SET: in vivo
PROPERTY LABEL: LD50 (%)
# value in %; strip the unit string

Past entries and their recorded results:
{"MOLECULE": "Cc1c(C)c2c(c(C)c1O)CCC(C)(CN1CCN(Cc3ccccc3)CC1)O2.Cl.Cl (centres undefined)", "LD50 [%]": 181.4}
{"MOLECULE": "C[C@@H]1C[C@H]2[C@@H]3CCC4=CC(=O)C=C[C@]4(C)C3=CC[C@]2(C)[C@H]1C(=O)CN1CCN(c2cc(N3CCCC3)nc(N3CCCC3)n2)CC1", "LD50 [%]": 128.4}
{"MOLECULE": "Cc1c(C)c2c(c(C)c1O)CCC(C)(CN1CCN(c3cc(N4CCCC4)nc(N4CCCC4)n3)CC1)O2.Cl.Cl.O (centres undefined)", "LD50 [%]": 134.2}

Now for another entry.
Recorded LD50 for Cc1c(C)c2c(c(C)c1O)CCC(C)(C(=O)N1CCN(c3cc(N4CCCC4)nc(N4CCCC4)n3)CC1)O2 (centres undefined) with Mus musculus, please?
115.2

###

Listing of recorded Grip score by entry.
# Tested on: Mus musculus
# PROCEDURE DETAILS: Tested in vivo for neuroprotectant activity against mouse head injury(MHI) model.
# Assay type: functional

Answered examples (3):
{"COMPOUND": "C[C@H]1C[C@@H]2[C@H]([C@@H](O)C[C@@]3(C)[C@H]2CC[C@]3(O)C(=O)COC(=O)CCC(=O)[O-])[C@@]2(C)C=CC(=O)C=C12.[Na+] [METHYLPREDNISOLONE SODIUM SUCCINATE]", "ASSAY TARGET": "Mus musculus", "REPORTED VALUE": 13.5}
{"COMPOUND": "Cc1c(C)c2c(c(C)c1O)CCC(C)(CN1CCN(c3cc(N4CCCC4)nc(N4CCCC4)n3)CC1)O2.Cl.Cl (stereo in doubt; 60)", "ASSAY TARGET": "Mus musculus", "REPORTED VALUE": 11.5}
{"COMPOUND": "COc1ccccc1N1CCN(C(=O)C2(C)CCc3c(C)c(O)c(C)c(C)c3O2)CC1 (centres undefined)", "ASSAY TARGET": "Mus musculus", "REPORTED VALUE": 12.8}

# returns recorded Grip score (system: Mus musculus) for Cc1c(C)c2c(c(C)c1O)CCC(C)(CNCCc1ccccc1)O2.O=C(O)C(=O)O (centres undefined)
8.7

Okay, and CC(=O)Oc1c(C)c(C)c2c(c1C)CCC(C)(CN1CCN(c3cc(N4CCCC4)nc(N4CCCC4)n3)CC1)O2 (centres undefined) ?
9.2

Same question, Cc1c(C)c2c(c(C)c1O)CCC(C)(C(=O)N1CCN(c3cc(N4CCCC4)nc(N4CCCC4)n3)CC1)O2 (centres undefined) this time
17.5

// query: Cc1c(C)c2c(c(C)c1O)CCC(C)(C(=O)N1CCN(c3ccccn3)CC1)O2 (centres undefined)
8.2

Continue with CCN(CC)c1ccc(N2CCN(CC3(C)CCc4c(C)c(O)c(C)c(C)c4O3)CC2)nc1N(CC)CC.Cl.O (centres undefined)
11.9

Cc1c(C)c2c(c(C)c1O)CCC(C)(C(=O)Nc1ccncc1)O2 (centres undefined) ?
11.5

###

Property: Grip score; scope: individual compounds
# System: Mus musculus
# PROCEDURE DETAILS: Tested in vivo for neuroprotectant activity against mouse head injury(MHI) model.
# Format: functional
The response must contain the number and no unit.

Solved entries:
{"COMPOUND": "Cc1c(C)c2c(c(C)c1O)CCC(C)(CN1CCN(c3cc(N4CCCC4)nc(N4CCCC4)n3)CC1)O2.Cl.Cl (stereo in doubt; 59)", "Grip score": 14.4}
{"COMPOUND": "Cc1c(C)c2c(c(C)c1O)CCC(C)(CN1CCN(c3ncccn3)CC1)O2 (centres undefined)", "Grip score": 10.3}
{"COMPOUND": "COc1ccc(CCNCC2(C)CCc3c(C)c(O)c(C)c(C)c3O2)cc1OC.Cl (centres undefined)", "Grip score": 8.4}
{"COMPOUND": "Cc1c(C)c2c(c(C)c1O)CCC(C)(C(=O)Nc1ccccn1)O2 (centres undefined)", "Grip score": 14.4}
{"COMPOUND": "Cc1c(C)c2c(c(C)c1O)CCC(C)(CN1CCN(c3ccccn3)CC1)O2.Cl.O (centres undefined)", "Grip score": 10.7}
{"COMPOUND": "C[C@@H]1C[C@H]2[C@@H]3CCC4=CC(=O)C=C[C@]4(C)C3=CC[C@]2(C)[C@H]1C(=O)CN1CCN(c2cc(N3CCCC3)nc(N3CCCC3)n2)CC1", "Grip score": 14.5}

# get_value(readout='Grip score', item= Cc1c(C)c2c(c(C)c1O)CCC(C)(CN1CCN(Cc3ccccc3)CC1)O2.Cl.Cl (centres undefined) )
13

Subsequent entry: Cc1c(C)c2c(c(C)c1O)CCC(C)(C(=O)N1CCN(c3ncccn3)CC1)O2 (centres undefined)
12

What about this compound? Cc1c(C)c2c(c(C)c1O)CCC(C)(CNc1ccccn1)O2 (centres undefined)
12.3
